tested on: T47D (breast cancer); assay: ATP level assay (CellTiter-Glo), percent of control; assay type: cell-based; settings: compound 100 uM + 2DG (about 10-20 mM), two hour incubation
# POC (percent of control) T47D listing for each entry below

{"compound": "Cn1cc(CNS(=O)(=O)c2ccc(Cl)cc2)c2ccccc21 [Compound 29]", "POC (percent of control) T47D": "60.7% of control"}
{"compound": "O=S(=O)(NCc1ccco1)c1ccc(Cl)cc1 [Compound 20]", "POC (percent of control) T47D": "69.7% of control"}
{"compound": "Cc1cccc2[nH]cc(CNS(=O)(=O)c3ccccc3)c12 [Compound 7]", "POC (percent of control) T47D": "40.1% of control"}
{"compound": "O=S(=O)(NCc1c[nH]c2ccccc12)c1ccc(Cl)cc1 [Compound 2]", "POC (percent of control) T47D": "16.6% of control"}
{"compound": "O=S(=O)(NCc1c[nH]c2ccccc12)c1ccccc1 [Compound 3]", "POC (percent of control) T47D": "37.1% of control"}
{"compound": "Cn1cc(CNS(=O)(=O)c2ccc(Cl)cc2)cn1 [Compound 11]", "POC (percent of control) T47D": "90.4% of control"}
{"compound": "Cc1ccc(S(=O)(=O)NCc2c[nH]c3ccccc23)cc1 [Compound 1]", "POC (percent of control) T47D": "43.2% of control"}
{"compound": "Cc1ccc(S(=O)(=O)NCc2cnccn2)cc1 [Compound 16]", "POC (percent of control) T47D": "111.6% of control"}
{"compound": "O=S(=O)(NCc1cncnc1)c1ccc(Cl)cc1 [Compound 14]", "POC (percent of control) T47D": "106.4% of control"}
{"compound": "Cc1cccc2c(CNS(=O)(=O)c3ccc(Cl)cc3)c[nH]c12 [Compound 28]", "POC (percent of control) T47D": "33.7% of control"}
{"compound": "Cc1cccc2[nH]cc(CNS(=O)(=O)c3ccc(Cl)cc3)c12 [Compound 30]", "POC (percent of control) T47D": "13.2% of control"}
{"compound": "Cc1ccc(S(=O)(=O)NCc2nn(C)c3ccccc23)cc1 [Compound 8]", "POC (percent of control) T47D": "94.6% of control"}
{"compound": "Cc1ccc(S(=O)(=O)NCc2cscn2)cc1 [Compound 17]", "POC (percent of control) T47D": "89.1% of control"}
{"compound": "O=S(=O)(NCc1cscn1)c1ccc(Cl)cc1 [Compound 18]", "POC (percent of control) T47D": "82.8% of control"}
{"compound": "Cn1ncc2cc(CNS(=O)(=O)c3ccc(Cl)cc3)ccc21 [Compound 10]", "POC (percent of control) T47D": "76.6% of control"}
{"compound": "CS(=O)(=O)NCc1c[nH]c2ccccc12 [Compound 26]", "POC (percent of control) T47D": "101% of control"}

Entry source: patent US20230266302A1
